Values compiled from patent US6077680A.

Biological target: Kv1.3 potassium channel of human T lymphocytes (human, UniProt P22001)
Test: 125I-ChTX displacement, Jurkat T lymphocytes
READOUT_NAME: IC50
Please answer using the number first and the unit second.

Sample RSCIDTIPKSRCTAFQCKHSMKYRLSFCRKTCGTC [ShK toxin (synthetic, wild type)] ; IC50 observed: 0.032 nM
